Just for reference, paper PMC10784249 is where these values come from.

test: PAMPA-BBB parallel artificial membrane permeability assay; format: in vitro ADME, porcine; settings: pig, pH 7.4, PBS:EtOH (70:30) as solvent, mean ± SD of 2 independent experiments, 2 h 30 min at 25 °C, read-out: Pe
Quantity Kind: Papp at […] (×10⁻⁶ cm/s)

INSERT INTO results (smiles_representation, result) VALUES
  ('CN1C(C(=O)Nc2ccccn2)=C(O)c2ccccc2S1(=O)=O', 0.6),
  ('CN(C)CCCN1c2ccccc2Sc2ccccc21', 12);
